Measured values drawn from paper PMC12951562 for this set.

Tgt: STAP1 (Homo sapiens, UniProt Q9ULZ2)
Construct: made in house; host or cells: HEK293 (transient transfection), unpurified extract
Sequence (Q9ULZ2 whole entry): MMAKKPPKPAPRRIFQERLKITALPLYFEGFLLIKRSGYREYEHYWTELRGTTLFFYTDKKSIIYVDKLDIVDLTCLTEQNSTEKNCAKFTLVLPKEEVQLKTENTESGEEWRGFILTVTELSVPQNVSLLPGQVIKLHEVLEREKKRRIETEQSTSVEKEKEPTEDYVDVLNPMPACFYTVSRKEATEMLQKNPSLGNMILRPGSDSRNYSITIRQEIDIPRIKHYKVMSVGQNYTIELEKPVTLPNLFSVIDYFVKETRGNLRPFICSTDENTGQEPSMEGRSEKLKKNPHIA
Test: biochemical
Format: binding
Experimental context: read-out: percent of DMSO vehicle control
Non-standard residues stand in square brackets, D forms with d. Residues, ends and D or L forms follow the SMILES beside them. *: point of attachment. pY = N[C@@H](Cc1ccc(OP(=O)(O)O)cc1)C(=O)O; Caffeoyl = O=C(/C=C/c1ccc(O)c(O)c1)*
Result type: remaining activity at 10 µM (%)

>  <Molecule>
NC(=O)CC[C@H](NC(=O)[C@@H]1CC[C@@H]2CCN(C(=O)CCCCCC#Cc3cccc4c3CN(C3CCC(=O)NC3=O)C4=O)C[C@H](NC(=O)c3cc4cc(C(F)(F)P(=O)(O)O)ccc4[nH]3)C(=O)N21)C(=O)NC(c1ccccc1)c1ccccc1 (stereo partly shown)

>  <Tgt>
STAP1 (Homo sapiens, UniProt Q9ULZ2)

>  <Reading unit>
%

>  <Observed>
79.9

$$$$
>  <Molecule>
CC(=O)N1CC[C@H]2CC[C@@H](C(=O)N[C@@H](CCC(N)=O)C(=O)NC(c3ccccc3)c3ccccc3)N2C(=O)[C@@H](NC(=O)c2cc3cc(C(F)(F)P(=O)(O)O)ccc3[nH]2)C1

>  <Tgt>
STAP1 (Homo sapiens, UniProt Q9ULZ2)

>  <Reading unit>
%

>  <Observed>
104

$$$$
>  <Molecule>
CC(=O)N[C@@H](Cc1ccc(CP(=O)(O)O)cc1)C(=O)NC1(C(=O)N[C@@H](CC(N)=O)C(=O)NCCCc2c(O)ccc3ccccc23)CCCCC1

>  <Tgt>
STAP1 (Homo sapiens, UniProt Q9ULZ2)

>  <Reading unit>
%

>  <Observed>
113

$$$$
>  <Molecule>
CC[C@H](C)[C@H](NC(=O)[C@H](CCC(=O)O)NC(=O)[C@H](CCC(=O)O)NC(=O)[C@H](Cc1ccc(OP(=O)(O)O)cc1)NC(=O)/C=C/c1ccc(O)c(O)c1)C(=O)N[C@@H](CCC(=O)O)C(=O)O [Caffeic acid-pYEEIE] (Caffeoyl-[pY]EEIE-OH)

>  <Tgt>
STAP1 (Homo sapiens, UniProt Q9ULZ2)

>  <Reading unit>
%

>  <Observed>
77.9

$$$$

###

Tgt: TNS4 (Homo sapiens)
Construct: made in house; host or cells: HEK293 (transient transfection), unpurified extract
Sequence (Q8IZW8 19-715): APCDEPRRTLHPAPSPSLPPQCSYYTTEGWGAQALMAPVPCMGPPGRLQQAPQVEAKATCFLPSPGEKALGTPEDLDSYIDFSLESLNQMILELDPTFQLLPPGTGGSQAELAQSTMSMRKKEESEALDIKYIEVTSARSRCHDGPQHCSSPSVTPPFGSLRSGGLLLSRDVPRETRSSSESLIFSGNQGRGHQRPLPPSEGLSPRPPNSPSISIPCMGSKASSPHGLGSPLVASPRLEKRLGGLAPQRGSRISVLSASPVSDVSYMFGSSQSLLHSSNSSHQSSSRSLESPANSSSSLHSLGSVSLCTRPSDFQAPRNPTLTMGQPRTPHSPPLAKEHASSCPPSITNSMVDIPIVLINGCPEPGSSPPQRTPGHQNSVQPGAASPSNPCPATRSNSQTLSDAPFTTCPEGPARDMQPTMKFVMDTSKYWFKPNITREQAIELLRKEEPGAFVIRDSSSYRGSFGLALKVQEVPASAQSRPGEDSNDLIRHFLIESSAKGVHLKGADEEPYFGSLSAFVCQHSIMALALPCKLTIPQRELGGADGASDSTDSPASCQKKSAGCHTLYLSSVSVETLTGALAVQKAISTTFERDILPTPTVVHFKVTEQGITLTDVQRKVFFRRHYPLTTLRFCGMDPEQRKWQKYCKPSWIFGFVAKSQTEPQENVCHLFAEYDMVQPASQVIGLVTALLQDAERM
Test: biochemical
Assay type: binding
Experimental context: read-out: percent of DMSO vehicle control
Non-standard residues stand in square brackets, D forms with d. Residues, ends and D or L forms follow the SMILES beside them. *: point of attachment. pY = N[C@@H](Cc1ccc(OP(=O)(O)O)cc1)C(=O)O; Caffeoyl = O=C(/C=C/c1ccc(O)c(O)c1)*
The entries below are paired with their reported remaining activity at 10 µM.
Result type: remaining activity at 10 µM (%)

>  <Molecule>
CC(=O)N[C@@H](Cc1ccc(CP(=O)(O)O)cc1)C(=O)NC1(C(=O)N[C@@H](CC(N)=O)C(=O)NCCCc2c(O)ccc3ccccc23)CCCCC1

>  <Result type>
remaining activity at 10 µM

>  <Observed>
5

$$$$
>  <Molecule>
CC[C@H](C)[C@H](NC(=O)[C@H](CCC(=O)O)NC(=O)[C@H](CCC(=O)O)NC(=O)[C@H](Cc1ccc(OP(=O)(O)O)cc1)NC(=O)/C=C/c1ccc(O)c(O)c1)C(=O)N[C@@H](CCC(=O)O)C(=O)O [Caffeic acid-pYEEIE] (Caffeoyl-[pY]EEIE-OH)

>  <Result type>
remaining activity at 10 µM

>  <Observed>
3.1

$$$$
>  <Molecule>
CC(=O)N1CC[C@H]2CC[C@@H](C(=O)N[C@@H](CCC(N)=O)C(=O)NC(c3ccccc3)c3ccccc3)N2C(=O)[C@@H](NC(=O)c2cc3cc(C(F)(F)P(=O)(O)O)ccc3[nH]2)C1

>  <Result type>
remaining activity at 10 µM

>  <Observed>
110

$$$$
>  <Molecule>
NC(=O)CC[C@H](NC(=O)[C@@H]1CC[C@@H]2CCN(C(=O)CCCCCC#Cc3cccc4c3CN(C3CCC(=O)NC3=O)C4=O)C[C@H](NC(=O)c3cc4cc(C(F)(F)P(=O)(O)O)ccc4[nH]3)C(=O)N21)C(=O)NC(c1ccccc1)c1ccccc1 (stereo partly shown)

>  <Result type>
remaining activity at 10 µM

>  <Observed>
58.1

$$$$

###

The entries below are paired with their reported remaining activity at 10 µM.
Tgt: PLCG1(SH2dom.C-term.) (Homo sapiens, UniProt P19174)
Construct: SH2dom.C-term. denotes SH2 domain closest to C-terminus of protein; made in house; host or cells: HEK293 (transient transfection, unpurified extract)
Sequence (P19174 668-756 limits assumed): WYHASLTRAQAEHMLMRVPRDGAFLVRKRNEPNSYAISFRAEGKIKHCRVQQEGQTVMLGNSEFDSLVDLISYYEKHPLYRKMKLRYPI
Test: biochemical
Type: binding
Experimental context: primary screen, 10 μM; read-out: percent of DMSO vehicle control

>  <Record smiles>
O=C(CCl)Nc1cccc(CNC(=O)[C@H](Cc2ccc(OP(=O)(O)O)cc2)NC(=O)Cc2ccc(F)cc2)c1

>  <Tgt>
PLCG1(SH2dom.C-term.) (Homo sapiens, UniProt P19174)

>  <Reading unit>
%

>  <remaining activity at 10 µM>
64.1

$$$$
>  <Record smiles>
C/C(=C\C(=O)N[C@H](C(=O)N1CCC[C@H]1C(=O)N(c1ccccc1)c1ccc(I)cc1)C(C)(C)C)c1ccc(OP(=O)(O)O)cc1

>  <Tgt>
PLCG1(SH2dom.C-term.) (Homo sapiens, UniProt P19174)

>  <Reading unit>
%

>  <remaining activity at 10 µM>
1.5

$$$$
>  <Record smiles>
CC(C)(C)[C@H](NC(=O)/C=C/c1ccc(OP(=O)(O)O)cc1)C(=O)N1CCC[C@H]1C(=O)N(c1ccccc1)c1ccc(I)cc1

>  <Tgt>
PLCG1(SH2dom.C-term.) (Homo sapiens, UniProt P19174)

>  <Reading unit>
%

>  <remaining activity at 10 µM>
24.7

$$$$
>  <Record smiles>
O=C(COc1ccc2cc(C(=O)Nc3ccccc3)ccc2c1)NCc1ccc(OP(=O)(O)O)c(OP(=O)(O)O)c1

>  <Tgt>
PLCG1(SH2dom.C-term.) (Homo sapiens, UniProt P19174)

>  <Reading unit>
%

>  <remaining activity at 10 µM>
78.8

$$$$

###

Tgt: STAT3 (Homo sapiens)
Construct: made in house; host or cells: HEK293 (transient transfection), unpurified extract
Sequence (P40763 whole entry): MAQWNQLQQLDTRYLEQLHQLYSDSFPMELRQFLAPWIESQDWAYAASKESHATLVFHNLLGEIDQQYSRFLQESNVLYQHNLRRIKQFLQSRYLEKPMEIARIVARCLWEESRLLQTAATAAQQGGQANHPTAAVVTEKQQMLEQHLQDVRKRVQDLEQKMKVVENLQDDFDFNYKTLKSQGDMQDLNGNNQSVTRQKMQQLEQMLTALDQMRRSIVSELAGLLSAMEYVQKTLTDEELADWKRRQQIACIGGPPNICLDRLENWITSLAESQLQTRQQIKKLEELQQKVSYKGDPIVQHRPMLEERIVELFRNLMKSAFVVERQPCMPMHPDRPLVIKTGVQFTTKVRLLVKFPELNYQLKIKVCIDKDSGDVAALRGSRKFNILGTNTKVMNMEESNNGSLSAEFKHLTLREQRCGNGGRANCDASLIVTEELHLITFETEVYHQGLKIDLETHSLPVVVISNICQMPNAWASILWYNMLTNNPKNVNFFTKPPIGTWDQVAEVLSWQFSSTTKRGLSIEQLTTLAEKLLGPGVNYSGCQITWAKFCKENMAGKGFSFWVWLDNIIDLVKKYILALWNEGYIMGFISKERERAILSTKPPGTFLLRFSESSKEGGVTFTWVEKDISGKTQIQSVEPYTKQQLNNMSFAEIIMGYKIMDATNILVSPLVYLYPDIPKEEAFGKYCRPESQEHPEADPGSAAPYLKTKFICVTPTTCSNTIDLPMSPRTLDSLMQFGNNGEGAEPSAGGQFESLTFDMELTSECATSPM
Test: biochemical
Format: binding
Experimental context: read-out: percent of DMSO vehicle control
Non-standard residues stand in square brackets, D forms with d. Residues, ends and D or L forms follow the SMILES beside them. *: point of attachment. pY = N[C@@H](Cc1ccc(OP(=O)(O)O)cc1)C(=O)O; Caffeoyl = O=C(/C=C/c1ccc(O)c(O)c1)*

>  <Molecule>
CC(=O)N1CC[C@H]2CC[C@@H](C(=O)N[C@@H](CCC(N)=O)C(=O)NC(c3ccccc3)c3ccccc3)N2C(=O)[C@@H](NC(=O)c2cc3cc(C(F)(F)P(=O)(O)O)ccc3[nH]2)C1

>  <Reading unit>
%

>  <percent of DMSO vehicle control at 10 µM>
0.4

$$$$
>  <Molecule>
NC(=O)CC[C@H](NC(=O)[C@@H]1CC[C@@H]2CCN(C(=O)CCCCCC#Cc3cccc4c3CN(C3CCC(=O)NC3=O)C4=O)C[C@H](NC(=O)c3cc4cc(C(F)(F)P(=O)(O)O)ccc4[nH]3)C(=O)N21)C(=O)NC(c1ccccc1)c1ccccc1 (stereo partly shown)

>  <Reading unit>
%

>  <percent of DMSO vehicle control at 10 µM>
0.1

$$$$
>  <Molecule>
CC(=O)N[C@@H](Cc1ccc(CP(=O)(O)O)cc1)C(=O)NC1(C(=O)N[C@@H](CC(N)=O)C(=O)NCCCc2c(O)ccc3ccccc23)CCCCC1

>  <Reading unit>
%

>  <percent of DMSO vehicle control at 10 µM>
80.9

$$$$
>  <Molecule>
CC[C@H](C)[C@H](NC(=O)[C@H](CCC(=O)O)NC(=O)[C@H](CCC(=O)O)NC(=O)[C@H](Cc1ccc(OP(=O)(O)O)cc1)NC(=O)/C=C/c1ccc(O)c(O)c1)C(=O)N[C@@H](CCC(=O)O)C(=O)O [Caffeic acid-pYEEIE] (Caffeoyl-[pY]EEIE-OH)

>  <Reading unit>
%

>  <percent of DMSO vehicle control at 10 µM>
102

$$$$

###

The entries below are paired with their reported remaining activity at 10 µM.
Tgt: PIK3R1(SH2dom.C-term.) (Homo sapiens, UniProt P27986)
Construct: SH2dom.C-term. denotes SH2 domain closest to C-terminus of protein; made in house; host or cells: HEK293 (transient transfection, unpurified extract)
Sequence (P27986 624-718 limits assumed): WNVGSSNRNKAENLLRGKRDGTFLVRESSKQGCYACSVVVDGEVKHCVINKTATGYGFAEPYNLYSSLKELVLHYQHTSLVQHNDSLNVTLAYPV
Test: biochemical
Assay type: binding
Experimental context: read-out: percent of DMSO vehicle control
Non-standard residues stand in square brackets, D forms with d. Residues, ends and D or L forms follow the SMILES beside them. *: point of attachment. pY = N[C@@H](Cc1ccc(OP(=O)(O)O)cc1)C(=O)O; Caffeoyl = O=C(/C=C/c1ccc(O)c(O)c1)*
Result type: remaining activity at 10 µM (%)

>  <Compound>
NC(=O)CC[C@H](NC(=O)[C@@H]1CC[C@@H]2CCN(C(=O)CCCCCC#Cc3cccc4c3CN(C3CCC(=O)NC3=O)C4=O)C[C@H](NC(=O)c3cc4cc(C(F)(F)P(=O)(O)O)ccc4[nH]3)C(=O)N21)C(=O)NC(c1ccccc1)c1ccccc1 (stereo partly shown)

>  <Result type>
remaining activity at 10 µM

>  <Reading unit>
%

>  <Observed>
94.6

$$$$
>  <Compound>
CC(=O)N1CC[C@H]2CC[C@@H](C(=O)N[C@@H](CCC(N)=O)C(=O)NC(c3ccccc3)c3ccccc3)N2C(=O)[C@@H](NC(=O)c2cc3cc(C(F)(F)P(=O)(O)O)ccc3[nH]2)C1

>  <Result type>
remaining activity at 10 µM

>  <Reading unit>
%

>  <Observed>
128

$$$$
>  <Compound>
CC(=O)N[C@@H](Cc1ccc(CP(=O)(O)O)cc1)C(=O)NC1(C(=O)N[C@@H](CC(N)=O)C(=O)NCCCc2c(O)ccc3ccccc23)CCCCC1

>  <Result type>
remaining activity at 10 µM

>  <Reading unit>
%

>  <Observed>
0

$$$$
>  <Compound>
CC[C@H](C)[C@H](NC(=O)[C@H](CCC(=O)O)NC(=O)[C@H](CCC(=O)O)NC(=O)[C@H](Cc1ccc(OP(=O)(O)O)cc1)NC(=O)/C=C/c1ccc(O)c(O)c1)C(=O)N[C@@H](CCC(=O)O)C(=O)O [Caffeic acid-pYEEIE] (Caffeoyl-[pY]EEIE-OH)

>  <Result type>
remaining activity at 10 µM

>  <Reading unit>
%

>  <Observed>
0.2

$$$$
